The measurements presented in this section are drawn from ChEMBL document CHEMBL4689842.

system: HEK-293T; test: Multiplex assay against HEK293T; format: toxicity, cell-based; details: human, 12 h, 10 µM, compound concentration 10 uM, replicate 2
I would appreciate it if you labelled entries Satisfied when Population Apoptotic (%) is 40% or higher, otherwise Not satisfied.

Reference set (5 entries):
>>> df
                                   molecule  system_under_test  assigned_category
0  Cc1nc(-c2ccc(-c3ccc(C(=O)N4CCc5cc6c(cc54)C4(CCN(C)CC4)CO6)cc3)c(C)c2)no1           HEK-293T          Satisfied
1  CN1CCN(CCOc2cc(OC3CCOCC3)c3c(Nc4c(Cl)ccc5c4OCO5)ncnc3c2)CC1           HEK-293T          Satisfied
2  C=CC(=O)Nc1cccc(C(=O)Nc2ccc(Nc3cc(-c4[nH]c(SC)nc4C)ccn3)cc2)c1           HEK-293T      Not satisfied
3  Cn1cc(-c2[nH]c3cc(NC(=O)[C@H](N)C4CCCCC4)cc4c3c2C=NNC4=O)cn1           HEK-293T          Satisfied
4  CC(C)NCC(O)COc1ccc(CCOCC2CC2)cc1.Cl (stereo not drawn) [BETAXOLOL HYDROCHLORIDE]           HEK-293T      Not satisfied

Tell me whether Population Apoptotic (%) is at least 40% here: Cc1nc(Nc2n[nH]c3c2CN(C(=O)N[C@H](CN(C)C)c2ccccc2)C3(C)C)c2sccc2n1
Not satisfied

Can c1cn2cc(-c3ccc4cn[nH]c4c3)nc(Nc3ccc(N4CCOCC4)cc3)c2n1 be said to have Population Apoptotic (%) at or above 40%?
Not satisfied

Check this molecule for Population Apoptotic (%) at or above 40%: Cc1[nH]c(/C=C2\C(=O)Nc3ccc(S(=O)(=O)N(C)c4cccc(Cl)c4)cc32)c(C)c1C(=O)N1CCN(C)CC1
Satisfied
